System: pigweed (Amaranthus retroflexus)
Assay: Test B pre/postemergence
Assay type: in vivo
Conditions: Preemergence, 500 g ai/ha; scale 0 to 100 (0 no effect, 100 complete control)
experimentalEndpoint: Pigweed plant response rating
Give bare numbers.

compound=CCOC(=O)c1nc(C2CC2)nc(NCCOC)c1Br datavalue=100
compound=CNN=Cc1nc(C2CC2)nc(N)c1Br datavalue=100
compound=CCOC(=O)Cc1nc(C2CC2)nc(N)c1Br datavalue=90
compound="COC(=O)c1nc(C2CC2C)nc(N)c1Br (stereo not shown)" datavalue=90
compound="CCOC(=O)C(C)c1nc(C2CC2)nc(N)c1Br (stereo not shown)" datavalue=90
compound="CCOC(=O)C(Cl)c1nc(C2CC2)nc(N)c1Br (stereo not shown)" datavalue=100
compound=COC(=O)c1nc(-c2ccc(C(F)(F)F)cc2)nc(N)c1Cl datavalue=80
compound=CC(C)COC(=O)c1nc(C2CC2)nc(N)c1Br datavalue=100

Working through the 2 compounds below one at a time, give Pigweed plant response rating for each.
1. COC(=O)CNc1nc(C2CC2)nc(C(=O)OC)c1Br
2. COC(=O)Cc1nc(C2CC2)nc(N)c1Br

1. 90
2. 90

* * *

Tested on: goosegrass (Eleusine indica)
Assay: Test C pre/postemergence
Type: in vivo
Details: Eleusine indica, post-emergence, Postemergence, 31 g ai/ha; read-out: Plant response rating (scale of 0 to 100), Goosegrass
experimentalEndpoint: pest or weed control at 31 g/ha (%)
Give bare numbers, in %.

smilesstructure=CCOC(=O)c1nc(-c2ccc(Cl)cc2)nc(N)c1Cl experimentalendpoint="pest or weed control at 31 g/ha" readoutunit=% datavalue=35
smilesstructure=Nc1nc(-c2ccc(Cl)cc2)nc(C(=O)O)c1Cl experimentalendpoint="pest or weed control at 31 g/ha" readoutunit=% datavalue=50
smilesstructure=CCOC(=O)c1nc(C2CC2)nc(NN)c1Br experimentalendpoint="pest or weed control at 31 g/ha" readoutunit=% datavalue=0
smilesstructure=CCOC(=O)c1nc(C2CC2)nc(N)c1F experimentalendpoint="pest or weed control at 31 g/ha" readoutunit=% datavalue=0

Query molecule follows.
Please look at this molecule and report its pest or weed control at 31 g/ha: COC(=O)c1nc(C2CC2)nc(N)c1F
0

* * *

System: crabgrass (Digitaria sanguinalis)
Assay: Test B pre/postemergence
Assay type: in vivo
Details: Postemergence, 125 g ai/ha; scale 0 to 100 (0 no effect, 100 complete control)
Assignment: determine reported Crabgrass plant response rating for the given compounds.
One number for each entry.

Consider the reported Crabgrass plant response rating for these compounds:
compound="CCCCOC(=O)c1nc(C2CC2)nc(N)c1Cl [Compound 76]" targetundertest="crabgrass (Digitaria sanguinalis)" experimentalendpoint="Crabgrass plant response rating" datavalue=90
compound="CCOC(=O)C(Cl)(Cl)c1nc(C2CC2)nc(N)c1Br [Compound 34]" targetundertest="crabgrass (Digitaria sanguinalis)" experimentalendpoint="Crabgrass plant response rating" datavalue=0

Working through the 5 compounds below one at a time, give Crabgrass plant response rating for each.
1. CCOC(=O)c1nc(C2CC2)nc(NOCc2ccccc2)c1Br [Compound 54]
2. CCOC(=O)Cc1nc(-c2ccc(Cl)cc2)nc(N)c1Br [Compound 41]
3. CCOC(=O)c1nc(C2CC2)nc(N=CN(C)C)c1Br [Compound 40]
4. COC(=O)c1nc(-c2ccc(Cl)cc2)nc(N)c1Br [Compound 83]
5. CCOC(=O)c1nc(C2CC2)nc(NOC)c1Br [Compound 52]

1. 20
2. 10
3. 0
4. 60
5. 0

* * *

Tested on: Surinam grass (Brachiaria decumbens)
Assay: Test B pre/postemergence
Type: in vivo
Settings: Preemergence, 125 g ai/ha; scale 0 to 100 (0 no effect, 100 complete control)
experimentalEndpoint: Plant response rating, Surinam Grass
Numbers only.

compound=Nc1nc(C2CC2)nc(C(=O)[O-])c1Br.[Na+] experimentalendpoint="Plant response rating, Surinam Grass" datavalue=60
compound=CC(=O)NN=Cc1nc(C2CC2)nc(N)c1Br experimentalendpoint="Plant response rating, Surinam Grass" datavalue=0
compound=Nc1nc(-c2ccc(Cl)cc2)nc(C(=O)O)c1Br experimentalendpoint="Plant response rating, Surinam Grass" datavalue=50
compound="CCOC(=O)C(OC(C)=O)c1nc(C2CC2)nc(N)c1Br (stereo not shown)" experimentalendpoint="Plant response rating, Surinam Grass" datavalue=0
compound=COC(OC)c1nc(C2CC2)nc(N)c1F experimentalendpoint="Plant response rating, Surinam Grass" datavalue=0

Working through the 2 compounds below one at a time, give Plant response rating, Surinam Grass for each.
1. CCOC(=O)C(Cl)(Cl)c1nc(C2CC2)nc(N)c1Br
2. CC=NNc1nc(C2CC2)nc(C(=O)OC)c1Br

1: 10; 2: 0

* * *

Assignment: determine reported pest or weed control at 125 g/ha for the given compounds.
System: pigweed (Amaranthus retroflexus)
Experiment: Test C pre/postemergence
Format: in vivo
Details: Amaranthus retroflexus, post-emergence, Postemergence, 125 g ai/ha; scale 0 to 100 (0 no effect, 100 complete control); read-out: Pigweed plant response rating
Give bare numbers, in %.

Consider the reported pest or weed control at 125 g/ha for these compounds:
smilesstructure=COC(=O)c1nc(C2CC2)nc(N)c1Br experimentalendpoint="pest or weed control at 125 g/ha" datavalue=95
smilesstructure=Nc1nc(C2CC2)nc(C(=O)O)c1Br experimentalendpoint="pest or weed control at 125 g/ha" datavalue=75
smilesstructure=COC(=O)c1nc(C2CC2)nc(N)c1F experimentalendpoint="pest or weed control at 125 g/ha" datavalue=100
smilesstructure=COC(=O)c1nc(C(C)C)nc(N)c1Br experimentalendpoint="pest or weed control at 125 g/ha" datavalue=75
smilesstructure=CCOC(=O)c1nc(-c2ccc(Cl)cc2)nc(N)c1Cl experimentalendpoint="pest or weed control at 125 g/ha" datavalue=100

Please look at this compound and report its pest or weed control at 125 g/ha: COC(=O)c1nc(C2CC2)nc(N)c1I
40

* * *

System: yellow nutsedge (Cyperus esculentus)
Assay: Test C pre/postemergence
Assay type: in vivo
Settings: Cyperus, post-emergence; Postemergence, 31 g ai/ha; read-out: Plant response rating (scale of 0 to 100), Nutsedge, Yellow
experimentalEndpoint: pest or weed control at 31 g/ha (%)
One number for each entry, in %.

Consider the reported pest or weed control at 31 g/ha for these compounds:
smilesstructure=COC(=O)c1nc(C2CC2)nc(N)c1Cl experimentalendpoint="pest or weed control at 31 g/ha" readoutunit=% datavalue=0
smilesstructure=CCOC(=O)c1nc(-c2ccc(Br)cc2)nc(N)c1Cl experimentalendpoint="pest or weed control at 31 g/ha" readoutunit=% datavalue=60
smilesstructure=Nc1nc(C2CC2)nc(C(=O)OCc2ccccc2)c1Cl experimentalendpoint="pest or weed control at 31 g/ha" readoutunit=% datavalue=0
smilesstructure=COC(=O)c1nc(C(C)C)nc(N)c1Br experimentalendpoint="pest or weed control at 31 g/ha" readoutunit=% datavalue=0

Query compound follows.
Specify pest or weed control at 31 g/ha for Nc1nc(-c2ccc(Br)cc2)nc(C(=O)O)c1Cl , system yellow nutsedge (Cyperus esculentus).
60

* * *

Test system: rice flatsedge (Cyperus iria)
Assay: Test E flooded paddy water application
Format: in vivo
Details: 64 g ai/ha; Flood; 21 days; scale 0 to 100 (0 no effect, 100 complete control)
Assignment: determine reported Flatsedge, Rice plant response rating for the given compounds.
One number for each entry.

Consider the reported Flatsedge, Rice plant response rating for these compounds:
smilesstructure=COC(=O)c1nc(-c2ccc(Cl)cc2)nc(N)c1Cl experimentalendpoint="Flatsedge, Rice plant response rating" datavalue=100
smilesstructure=CCOC(=O)c1nc(-c2ccc(I)cc2)nc(N)c1Cl experimentalendpoint="Flatsedge, Rice plant response rating" datavalue=95

Query compound follows.
Please look at this compound and report its Flatsedge, Rice plant response rating: CCOC(=O)c1nc(-c2ccc(Cl)cc2)nc(N)c1Cl
90

* * *

Assignment: determine reported Corn plant response rating for the given molecules.
Tested on: corn (Zea mays)
Experiment: Test B pre/postemergence
Assay type: in vivo
Conditions: Postemergence, 125 g ai/ha; scale 0 to 100 (0 no effect, 100 complete control)
Give bare numbers.

molecule="CC(C)OC(=O)c1nc(C2CC2)nc(N)c1Br [Compound 14]" experimentalendpoint="Corn plant response rating" datavalue=30

Working through the 4 molecules below one at a time, give Corn plant response rating for each.
1. COC(=O)c1nc(-c2ccc(Br)cc2)nc(N)c1Br [Compound 129]
2. CCOC(=O)c1nc(C2CC2)nc(NCCOC)c1Br [Compound 39]
3. Nc1nc(C2CC2)nc(C(=O)[O-])c1Br.[Na+] [Compound 113]
4. CCOC(=O)C(Cl)(Cl)c1nc(C2CC2)nc(N)c1Br [Compound 34]

1. 80
2. 0
3. 40
4. 0

Working through the 2 molecules below one at a time, give Corn plant response rating for each.
1. Nc1nc(C2CC2)nc(C(=O)O)c1Cl [Compound 135]
2. COCc1nc(C2CC2)nc(N)c1Br [Compound 11]

1. 80
2. 0
